Tested on: RPMI-8226 leukemia
PROCEDURE TEXT: NCI-60 one-dose screen, 48 h (100 = growth as untreated, 0 = no growth, -100 = all killed)
RECORDED CONDITIONS: 10 µM unless noted
About 83,000 compounds went through this panel and 20% of them were active in at least one assay; those are over-represented in the sample as a whole.
QUANTITY KIND: growth (%)
Write the value in % as a bare number.

Worked cases, growth given:
INSERT INTO measurements (compound, unit_annotation, value_measured) VALUES
  ('CC1=C(CCCOC(=O)CN)C2=C(C)C3(CC3)[C@@](C)(O)C(=O)C2=C1', '%', 88.8),
  ('CCOc1ccc(/C=C/[N+](=O)[O-])cc1', '%', -36.4),
  ('Clc1ccc2nnnn2n1', '%', 5.38);

Ask | Give its growth value. Item: COC(=O)CC[C@H](Cc1ccccc1)NC(=O)c1csc([C@@H](C[C@H](C(C)C)N(C)C(=O)[C@@H](NC(=O)[C@H]2CCCCN2C)C(C)C)OC(C)=O)n1
Reply | 37.3

Ask | Thanks! And Cn1cccc1C1CC(=O)N(CCC[Se]C#N)C1=O (stereo unspecified) ?
Reply | 64.4

Ask | Thanks! And O=C1C2CC=CCC2C(=O)N1SC(Cl)(Cl)Cl (stereo unspecified) ?
Reply | 33.1

---

Tested on: OVCAR-4 ovarian
PROCEDURE TEXT: NCI-60 one-dose screen, 48 h (100 = growth as untreated, 0 = no growth, -100 = all killed)
RECORDED CONDITIONS: 10 µM unless noted
About 83,000 compounds went through this panel and 20% of them were active in at least one assay; those are over-represented in the sample as a whole.
QUANTITY KIND: growth (%)
Write the value in % as a bare number.

Worked cases, growth given:
INSERT INTO assay_data (compound, quantity_kind, value_measured) VALUES
  ('C[C@@H]1C[C@@]2(C)[C@@H](CC[C@@H]3[C@@H]2CC[C@]2(C)C(=O)CC[C@@H]32)CC1=O', 'growth', 103),
  ('C[C@]12CCc3nc(Nc4ccccc4F)sc3C1=CC[C@@H]1[C@@H]2CC[C@]2(C)C(=O)CC[C@@H]12', 'growth', 73.9);

Ask | Give its growth value. Item: COC(=O)[C@@H](C)C[C@H](Cc1ccccc1)NC(=O)c1nc([C@@H](C[C@H](C(C)C)N(C)C(=O)[C@@H](NC(=O)[C@H]2CCCCN2C)C(C)C)OC(C)=O)sc1C
Reply | 50.6

Ask | Thanks! And Cc1ccc(S(=O)(=O)F)cc1C(=O)O ?
Reply | 110

---

Test system: OVCAR-3 ovarian
PROCEDURE TEXT: NCI-60 one-dose screen, 48 h
RECORDED CONDITIONS: 10 µM unless noted
Compounds without any hit were thinned out: in the full panel of roughly 83,000, 20% have a hit. Calls of active or inactive are those of the source. How the source made its calls: active means growth percent below 10; inactive means the rest.
Respond only with the outcome that fits, drawn from yes (1) for active, no (0) for inactive

Ask | # lookup: test call for c1cnc2[nH]cc(-c3csc(-c4cn(CCCCN5CCCCC5)c5ccccc45)n3)c2c1
Reply | no (0)

Ask | Thanks! And CCCCCC1(CCBr)C(=O)NC(=O)NC1=O ?
Reply | no (0)

Ask | Thanks! And CN(CCCCN(C)CCOS(C)(=O)=O)CCOS(C)(=O)=O ?
Reply | no (0)

Ask | Thanks! And CO[C@H](C(=O)O)[C@@H]1Cc2cc3cc(OC4CC(OC5CC(O)C(O)C(C)O5)C(O)C(C)O4)c(C)c(O)c3c(O)c2C(=O)[C@H]1OC1CC(OC2CC(OC3CC(C)(O)C(O)C(C)O3)C(O)C(C)O2)C(O)C(C)O1 (stereo partly drawn) ?
Reply | no (0)

Ask | Thanks! And Clc1ccc(CO/N=C(\Cn2ccnc2)c2ccc(Cl)cc2Cl)c(Cl)c1 ?
Reply | yes (1)

Ask | Thanks! And COc1ccc(/C=C\c2cc(OC)c(OC)c(OC)c2)c(NS(=O)(=O)c2ccc(Cl)cc2)c1O ?
Reply | yes (1)

Ask | Thanks! And NC(N)=N/N=C\c1c[nH]c2ccc(Br)cc12 ?
Reply | no (0)

Ask | Thanks! And COC(=O)[C@@H](C)C[C@H](Cc1ccccc1)NC(=O)c1csc([C@@H](C[C@H](C(C)C)N(C)C(=O)[C@@H](NC(=O)[C@H]2CCCCN2C)c2ccc(F)cc2)OC(C)=O)n1 ?
Reply | yes (1)

---

Tested on: PC-3 prostate
PROCEDURE TEXT: NCI-60 one-dose screen, 48 h
RECORDED CONDITIONS: 10 µM unless noted
Compounds without any hit were thinned out: in the full panel of roughly 83,000, 20% have a hit. Activity calls are given as the source filed them. Rule for the calls: active = growth percent below 10; inactive = the rest.
Respond only with the outcome that fits, drawn from TRUE (active), FALSE (inactive)

INSERT INTO assay_data (molecule, category) VALUES
  ('COC(=O)[C@@]1(C)CC[C@]2(C)CC[C@]3(C)C4=CC=C5C(=CC(=O)C(O)=C5C)[C@]4(C)CC[C@@]3(C)[C@@H]2C1', 'TRUE'),
  ('COC(=O)[C@@H](C)C[C@H](Cc1ccccc1)NC(=O)c1cccc([C@@H](C[C@H](C(C)C)N(C)C(=O)[C@@H](NC(=O)[C@H]2CCCCN2C)C(C)C)OC(C)=O)n1', 'FALSE'),
  ('O=P1(NCCCl)OCCCN1CCCl (centres undefined)', 'FALSE');

Ask | # lookup: test call for c1cnc2[nH]cc(-c3csc(-c4cn(CCCCN5CCCCC5)c5ccccc45)n3)c2c1
Reply | FALSE

Ask | Thanks! And COc1cccc(C=NC(Cc2cnc[nH]2)C(=O)O)c1O (centres undefined) ?
Reply | FALSE

---

Form field: growth (one value per entry).
Tested on: MOLT-4 leukemia
PROCEDURE TEXT: NCI-60 one-dose screen, 48 h (100 = growth as untreated, 0 = no growth, -100 = all killed)
RECORDED CONDITIONS: 10 µM unless noted
This is part of a sample that, as a whole, favours compounds with a hit. Of some 83,000 tested, about 20% had one in any assay. The source made the active and inactive calls. The calls were made as follows: active = growth percent below 10; inactive = the rest.

Worked cases, growth given:
INSERT INTO measurements (compound, value_measured) VALUES
  ('C#Cc1ccc2c(c1)C(c1ccccc1)=NCC(=O)N2C', '39.5% (inactive)'),
  ('COc1cc2c(cc1OCc1ccccc1)C(CC(C)C)=[N+](C)CC2', '91.8% (inactive)'),
  ('CCOC(=O)[C@@H](C)C[C@H](Cc1ccccc1)NC(=O)c1csc([C@@H](C[C@H](C(C)C)N(C)C(=O)[C@@H](NC(=O)[C@H]2CCCCN2C)C(C)(C)C)OC(C)=O)n1', '7.61% (active)');

Ask | State its growth on MOLT-4 leukemia: CC12CCC3C(C=CC4=C(N)C(=O)CCC43C)C1CCC2=O (stereo not drawn)
Reply | 57.2% (inactive)

Ask | Thanks! And COC(=O)C1CCC(NC(=O)c2csc([C@@H](C[C@H](C(C)C)N(C)C(=O)[C@@H](NC(=O)[C@H]3CCCCN3C)C(C)C)OC(C)=O)n2)CC1 (stereo partly drawn) ?
Reply | 18.1% (inactive)

Ask | Thanks! And CC(=O)OC1CCC2(C)C(CCC3C2CC(=O)C2(C)C3CC(Sc3ccc(N(CCCl)CCCl)cc3)C2C(C)=O)C1 (stereo not drawn) ?
Reply | 77.3% (inactive)

Ask | Thanks! And CCCCCSC1C2C(=O)C(Br)=CC13CCNc1c(O)c4c5c(c13)=[N+]2CCC=5C=N4 (stereo not drawn) ?
Reply | -45.5% (active)

Ask | Thanks! And O=C(O)C(O)C(O)C1[O][Sb]([c]2ccc([N+](=O)[O-])cc2)[O]C1CO (stereo not drawn) ?
Reply | 98.2% (inactive)

---

Test system: HS 578T breast
PROCEDURE TEXT: NCI-60 one-dose screen, 48 h (100 = growth as untreated, 0 = no growth, -100 = all killed)
RECORDED CONDITIONS: 10 µM unless noted
Compounds without any hit were thinned out: in the full panel of roughly 83,000, 20% have a hit. The source made the active and inactive calls. How the source made its calls: active means growth percent below 10; inactive means the rest.
QUANTITY KIND: growth

INSERT INTO assay_data (compound, value_measured) VALUES
  ('C=CC[Se]C(=O)c1ccccc1OC(C)=O', '-8.17% (active)');

Ask | Give its growth value. Item: O=C(N/N=C\c1ccc(N(CCCl)CCCl)cc1Cl)c1cccnc1
Reply | 119% (inactive)

Ask | Thanks! And CC[C@H](C)[C@H](NC(=O)C12CC(NC(C)=O)(C1)C2)C(=O)N(C)[C@H](C[C@@H](OC(C)=O)c1nc(C(=O)N[C@@H](Cc2ccccc2)C[C@H](C)C(=O)OC)cs1)C(C)C ?
Reply | 15.8% (inactive)

Ask | Thanks! And C/C(=C\c1ccn(-c2ccc(N)cc2C(F)(F)F)n1)[C@@H]1C[C@@H]2O[C@]2(C)CCC[C@H](C)[C@H](O)[C@@H](C)C(=O)C(C)(C)[C@@H](O)CC(=O)O1 ?
Reply | -10.7% (active)

Ask | Thanks! And COc1ccc(S(=O)(=O)N(Cc2ccc3c(c2)C=CC(C)(C)O3)c2ccccc2)cc1OC ?
Reply | 91.1% (inactive)

Ask | Thanks! And CC(=O)OC1CCC2C3CCC4=C/C(=N/OC(=O)c5ccc(N(CCCl)CCCl)cc5)CCC4(C)C3CC(C)C12 (stereo unspecified) ?
Reply | 26.3% (inactive)
